System: SF-539 CNS
Assay explanation: NCI tumour cell line growth inhibition, 48 h
Experimental endpoint: GI50

The examples below pair each entry with its known result.
Exam item: State the recorded GI50 for this entry: `COc1cc2c3c(n(CCCBr)c(=O)c2cc1OC)-c1ccc(F)cc1C3=O`
Marked response: 3.54 µM

Exam item: State the recorded GI50 for this entry: `Cc1nc2c(N3CCCC3)nc(N3CCNCC3)nc2nc1NCc1ccccc1`
Marked response: 6.21 µM

---
Exam item: State the recorded GI50 for this entry: `CNC1=C(C(=O)OC)SC(c2ccccc2)(c2ccccc2)SC1`
Marked response: 26.3 µM

---

System: EKVX NSCLC
Assay explanation: NCI tumour cell line growth inhibition, 48 h; in the data active = GI50 below about 0.43 µM; inactive = the rest
Respond with a class label; see y = active, n = inactive

Example results:
Exam item: Recorded test outcome, item `CC1(C)CC([P+](c2ccccc2)(c2ccccc2)c2ccccc2)=NN1`
Marked response: n

Exam item: Recorded test outcome, item `N#C/C(=C\c1c(-c2ccccc2)[nH]c2ccccc12)C(=O)c1ccccc1`
Marked response: n

Exam item: Recorded test outcome, item COC(=O)[C@H](C)NC(=O)[C@@H](OC)[C@@H]1Cc2cc3cc(OC4CC(OC5CC(O)C(O)C(C)O5)C(O)C(C)O4)c(C)c(O)c3c(O)c2C(=O)[C@H]1OC1CC(OC2CC(OC3CC(C)(O)C(O)C(C)O3)C(O)C(C)O2)C(O)C(C)O1 (stereo not given in full)
Marked response: y

Exam item: Recorded test outcome, item `COc1ccc(-c2ccc(-c3ccc(C(=N)N)cn3)o2)cc1Cl`
Marked response: n

// switching to the query molecule
Exam item: Recorded test outcome, item `CCCCCCCCCCCCCCCCCCOc1ccccc1CC(=O)NCC[N+](C)(C)C`
Marked response: n
